Target: FLT3 (K663Q) (Homo sapiens, UniProt P36888, K663Q)
Assay: Kd determination
Kd: recorded values
Entry rule: numbers only, all in nM.

CC(C)Nc1ccnc(Nc2cccc(-c3cccnc3)c2)n1    13

Here's the next entry for you.
Input: // output Kd; input `c1cncc(-c2cccc(Nc3nccc(NC4CCCCC4)n3)c2)c1` ; system FLT3 (K663Q) (Homo sapiens, UniProt P36888, K663Q)
Output: 110

###

Experiment: In vivo pharmacokinetic study
Set-up: species or system mouse
Conditions: female, C57BL/6, mouse, plasma, ip, 3 mg/kg
MEASURED_QUANTITY: AUC (µM·h)
Entry rule: numbers only, all in µM·h.

Input: Please report AUC for the following molecule: `CC(C)Nc1ccnc(Nc2cccc(-c3cccnc3)c2)n1`
Output: 0.183
